System: HS 578T breast
Test: NCI tumour cell line growth inhibition, 48 h
Reported values of TGI for individual entries

Before answering, review these 3 worked examples.
Cc1ccc(NC2=N/C(=C/c3ccco3)C(Cl)=N2)cc1 = > 100 µM
CC(C(=O)O)c1ccc(-c2ccccc2)c(F)c1 (centres undefined) = > 100 µM
CC(=O)Nc1ccc(/C=C2/NC(=S)N(/C=C3\C(=O)Oc4ccccc4C3=O)C2=O)cc1 = > 100 µM

Query: TGI; subject: COc1cc(C)cc2c(-c3c(O)cc(O)c4c3C[C@H](C)N[C@H]4C)cc(-c3cc(-c4c(O)cc(O)c5c4C[C@H](C)N[C@H]5C)c4cc(C)cc(OC)c4c3O)c(O)c12
> 100 µM

Query NNS(=O)(=O)c1cc(C(=O)O)cc(C(=O)O)c1 next
> 100 µM

// same read-out, input: COc1cccc(NC(=O)CC(=O)N2N=C(C)C(N=Nc3ccc(C(=O)O)cc3)C2=O)c1 (centres undefined)
> 100 µM

Can you check CCCCN(CC)c1ncnc2ccc(Br)cc12 next?
35.9 µM

What about C=CCOC1(CC=C)C(=O)OC2C(O)COC21O (centres undefined) ?
> 100 µM

Query COc1cc(/C=C2\CN(C(=O)CCN3CCC(=NO)CC3)C/C(=C\c3cc(OC)c(OC)c(OC)c3)C2=O)cc(OC)c1OC next
13.5 µM

Where these numbers come from: PubChem BioAssay (NCI)
